Origin of values: ChEMBL document CHEMBL4257467

# measured_target: Glucagon-like peptide 1 receptor (Homo sapiens, UniProt P43220)
# Sequence (P43220 whole entry): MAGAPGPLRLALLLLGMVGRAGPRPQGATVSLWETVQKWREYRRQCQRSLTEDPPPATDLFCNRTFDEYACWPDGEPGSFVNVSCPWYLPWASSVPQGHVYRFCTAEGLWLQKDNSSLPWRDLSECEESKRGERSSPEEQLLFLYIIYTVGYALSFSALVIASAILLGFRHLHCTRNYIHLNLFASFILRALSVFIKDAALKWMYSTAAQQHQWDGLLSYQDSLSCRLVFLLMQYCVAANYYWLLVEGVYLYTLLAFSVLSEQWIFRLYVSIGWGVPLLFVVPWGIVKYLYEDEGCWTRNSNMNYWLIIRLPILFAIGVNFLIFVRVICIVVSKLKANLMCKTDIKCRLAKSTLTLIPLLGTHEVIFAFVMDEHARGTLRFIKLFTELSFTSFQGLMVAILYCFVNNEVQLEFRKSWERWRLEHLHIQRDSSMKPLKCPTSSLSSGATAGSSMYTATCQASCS
# protocol: Agonist activity at human GLP1 receptor expressed in HEK293 cells assessed as increase in cAMP level after 30 mins by HTRF method
# Type: functional, cell-based
*1 amine or outer side, *2 acyl side, *3 side chain or, on linkers, in order; H or OH if unused. Side-chain parts run from the residue outwards. The star is where a group is joined. Mycophenolyl = COc1c(C)c2c(c(O)c1C/C=C(\C)CCC(=O)*)C(=O)OC2; γGlu = O=C(O)[C@H](CCC(=O)[*:2])N[*:1]; 12Ado = NCCCCCCCCCCCC(=O)O; Ahx = NCCCCCC(=O)O
test_readout: pEC50
FYI, pEC50 means -log10 of a concentration in mol per litre.

Param readout = pEC50; param system = Glucagon-like peptide 1 receptor (Homo sapiens, UniProt P43220); param query = `H-HGEGTYTNDVTEYLEEEAAKEFIEWLIKGK-OH` ; response: value 8.27

Param readout = pEC50; param system = Glucagon-like peptide 1 receptor (Homo sapiens, UniProt P43220); param query = `H-HGEGTYTNDVTEYLEEEAAK([γGlu-Ahx-Mycophenolyl])EFIEWLIKGKPSSGAPPSKKKKKK-OH` ; response: value 8.55

Param readout = pEC50; param system = Glucagon-like peptide 1 receptor (Homo sapiens, UniProt P43220); param query = `H-HGEGTYTNDVTEYLEEEAAK([γGlu-12Ado-Mycophenolyl])EFIEWLIKGKPSSGAPPSKKKKKK-OH` ; response: value 8.51
